Test system: T-47D breast
Experiment: NCI tumour cell line growth inhibition, 48 h

- Compound: "CCCn1c2c(c3ccccc3c1=O)C(=O)c1cc3c(cc1-2)OCO3"
  GI50: "> 100 µM"
- Compound: "COc1cc(-c2cc(/C=C3\\C(=O)Nc4ccc(Cl)cc43)[nH]n2)cc(OC)c1OC"
  GI50: "2.6 µM"
- Compound: "O=C(Nc1cccc(-n2cc(-c3ccncc3)c(-c3ccc(Cl)c(O)c3)n2)c1)Nc1cccc(C(F)(F)F)c1"
  GI50: "2.47 µM"
- Compound: "CCN(CC)CCn1c(N)c(-c2nc3ccccc3n2C)c2nc(C#N)c(C#N)nc21"
  GI50: "1.68 µM"
- Compound: "COc1ccc(-c2cnoc2-c2ccc(OC)cc2O)cc1"
  GI50: "8.64 µM"
- Compound: "Cc1nnc([S-])o1.[Au+].c1ccc([PH+](c2ccccc2)c2ccccc2)cc1"
  GI50: "1.87 µM"
- Compound: "C=C1C(=O)O[C@H]2[C@H]1CC/C(COC(=O)NCc1[nH]nc3ccccc13)=C\\CC[C@@]1(C)O[C@@H]21"
  GI50: "1.74 µM"
- Compound: "N#Cc1c(-c2ccccc2)n([O-])c2ccccc2[n+]1=O"
  GI50: "30.1 µM"
- Compound: "O=C(NNC(=O)C1CCN(S(=O)(=O)c2ccc(-c3ccccc3)cc2)CC1)c1ccc(C(F)(F)F)cc1"
  GI50: "3.99 µM"
- Compound: "CN(C)c1ccc(O)c2c1CC1CC3C(N(C)C)C(=O)C(C(N)=O)=C(O)C3(O)C(=O)C1=C2O (stereo unspecified)"
  GI50: "27.7 µM"
- Compound: "CCCCC/C=C/C(=O)CCc1ccc(O)c(OC)c1"
  GI50: "4.78 µM"
- Compound: "CN1CCN(Cc2ccc(NC(=O)c3nc4ccc5[nH]ncc5c4c4c3CCCC4)cc2C(F)(F)F)CC1"
  GI50: "0.926 µM"
- Compound: "Cc1cc(I)cc(CN(C)CCN(C)C)c1O"
  GI50: "28.8 µM"
- Compound: "C/C=C(/C(=C/C)c1ccc(O)cc1)c1ccc(O)cc1"
  GI50: "5.11 µM"
- Compound: "C=C(C)[C@@H]1CC[C@]2(COC(C)=O)CC[C@]3(C)[C@H](CC[C@@H]4[C@@]5(C)CCCN(C(C)=O)C(C)(C)[C@@H]5CC[C@]43C)[C@@H]12"
  GI50: "1.63 µM"
- Compound: "COc1ccc2c(c1)CC[C@@H]1[C@@H]2CC[C@]2(C)C(c3ccsc3)=C(/C=C/C(=O)c3ccccc3)C[C@@H]12"
  GI50: "> 100 µM"

* * *

System: MDA-N
Test: NCI tumour cell line growth inhibition, 48 h
Value Type: TGI

- Compound: "O=c1cc(NNc2ccc3ccccc3c2)[nH]c(=S)[nH]1"
  Value Type: "TGI"
  Result: "> 100 µM"
- Compound: "CC[N+](C)(CC)CCNC(=O)C(O)(c1ccccc1)c1ccccc1"
  Value Type: "TGI"
  Result: "> 100 µM"
- Compound: "CC(NC(=O)CNP(=O)(c1ccccc1)c1ccccc1)C(=O)NC(Cc1ccccc1)C(=O)OCc1ccccc1 (stereo unspecified)"
  Value Type: "TGI"
  Result: "> 100 µM"
- Compound: "N=C1N(c2ccccc2)C(=S)C(=Nc2ccccc2)N1c1ccccc1"
  Value Type: "TGI"
  Result: "6.1 µM"
- Compound: "O=S(=O)(O)c1ccc2c(N=Nc3cccc4ccccc34)c(O)c(S(=O)(=O)O)cc2c1"
  Value Type: "TGI"
  Result: "> 100 µM"
- Compound: "Fc1cc(-c2cc(-c3ccccc3)n[nH]2)c(Cl)cc1Cl"
  Value Type: "TGI"
  Result: "> 100 µM"
- Compound: "CCCn1c2c(c3ccccc3c1=O)C(=O)c1cc3c(cc1-2)OCO3"
  Value Type: "TGI"
  Result: "> 100 µM"
- Compound: "Cn1c2ccccc2c(=NNc2ccc(S(N)(=O)=O)cc2)c2ccccc21"
  Value Type: "TGI"
  Result: "> 50 µM"
- Compound: "O=c1[nH]c2cc(Cl)ccc2nc1/C(=N/Nc1ccccc1)C(O)c1ccco1 (stereo unspecified)"
  Value Type: "TGI"
  Result: "> 100 µM"
- Compound: "Cc1ccc(N=NC(=O)NNc2ccc(C)c([N+](=O)[O-])c2)cc1[N+](=O)[O-]"
  Value Type: "TGI"
  Result: "> 100 µM"
- Compound: "O=C1C=CC(=O)N1n1c(Cc2ccccc2)n[nH]c1=O"
  Value Type: "TGI"
  Result: "> 100 µM"

* * *

Each entry below carries its recorded TGI.
Test system: UACC-257 melanoma
Test: NCI tumour cell line growth inhibition, 48 h

- Compound: "O=C1c2ccccc2C(=O)N1CCn1nc(-c2ccccc2)cc(-c2ccccc2)c1=O"
  Measured On: "UACC-257 melanoma"
  TGI: "> 100 µM"
- Compound: "CN(CCN(C)CCN(C)C(=O)Cc1ccc(Cl)c(Cl)c1)CCN1CCCC1"
  Measured On: "UACC-257 melanoma"
  TGI: "17.5 µM"
- Compound: "CCOP(=O)(/C=C/n1ccc(=O)[nH]c1=O)OCC"
  Measured On: "UACC-257 melanoma"
  TGI: "> 100 µM"
- Compound: "CCOC(=O)NC(=O)c1cn(-c2ccc(CCOC(=O)NCCCCCCNC(=O)OCCc3ccc(-n4c(=O)[nH]cc(C(=O)NC(=O)OCC)c4=O)cc3)cc2)c(=O)[nH]c1=O"
  Measured On: "UACC-257 melanoma"
  TGI: "> 100 µM"
- Compound: "O=C1c2cc3c(cc2[C@@H]2NC4CCCC14O2)OCO3 (stereo not given in full)"
  Measured On: "UACC-257 melanoma"
  TGI: "> 100 µM"

* * *

Test system: UACC-62 melanoma
Assay: NCI tumour cell line growth inhibition, 48 h
Each entry below carries its recorded TGI.

- Compound: "Oc1ccc(/C=C/c2ccc(O)cc2)cc1"
  Measured On: "UACC-62 melanoma"
  TGI: "16.9 µM"
- Compound: "CS(=O)(=O)Nc1ccc(Nc2cc[nH]c3ccc4nccc4c23)cc1"
  Measured On: "UACC-62 melanoma"
  TGI: "28.1 µM"
- Compound: "O=C1c2ccc3c4c(ccc(c24)C(=O)N1CCCNCc1ccccc1F)C(=O)N(CCCNCc1ccccc1F)C3=O"
  Measured On: "UACC-62 melanoma"
  TGI: "0.335 µM"
- Compound: "CN(CC(=O)O)c1ncc2c(n1)-c1ccccc1OC2c1ccccc1 (configuration not stated)"
  Measured On: "UACC-62 melanoma"
  TGI: "> 100 µM"
- Compound: "CC(=O)NC(C)(C)C1CC=C(C)/C(=N\\O)C1 (configuration not stated)"
  Measured On: "UACC-62 melanoma"
  TGI: "> 100 µM"
- Compound: "CN(CCN(C)CCN(C)C(=O)Cc1ccc(Cl)c(Cl)c1)CCN1CCCC1"
  Measured On: "UACC-62 melanoma"
  TGI: "16.6 µM"
- Compound: "C[C@H](CCC(=O)O)[C@H]1CC[C@H]2[C@@H]3[C@@H](O)C[C@@H]4C[C@H](O)CC[C@]4(C)[C@H]3CC[C@]12C"
  Measured On: "UACC-62 melanoma"
  TGI: "> 100 µM"
- Compound: "O=c1[nH]c2cc(Cl)ccc2nc1/C(=N/Nc1ccccc1)C(O)c1ccco1 (configuration not stated)"
  Measured On: "UACC-62 melanoma"
  TGI: "> 100 µM"
- Compound: "O=C1C(c2ccccc2)=C(c2ccccc2)C(c2ccc(-c3ccc(C4=C(c5ccccc5)C(=O)C(c5ccccc5)=C4c4ccccc4)cc3)cc2)=C1c1ccccc1"
  Measured On: "UACC-62 melanoma"
  TGI: "> 100 µM"
- Compound: "CCN(CC)CCn1c(N)c(-c2nc3ccccc3n2C)c2nc(C#N)c(C#N)nc21"
  Measured On: "UACC-62 melanoma"
  TGI: "15 µM"
- Compound: "COc1cc([C@@H]2c3cc4c(cc3[C@@H](NC(=O)c3cccc(N)c3)C3COC(=O)[C@@H]32)OCO4)cc(OC)c1O (some centres not stated)"
  Measured On: "UACC-62 melanoma"
  TGI: "7.94 µM"
- Compound: "COc1cc(C(=O)C(CO)Oc2ccccc2OC)ccc1O (configuration not stated)"
  Measured On: "UACC-62 melanoma"
  TGI: "> 100 µM"

* * *

Test system: HS 578T breast
Test: NCI tumour cell line growth inhibition, 48 h

- Compound: "O=C(NNC(=O)C1CCN(S(=O)(=O)c2ccc(-c3ccccc3)cc2)CC1)c1ccc(C(F)(F)F)cc1"
  Measured On: "HS 578T breast"
  GI50: "38.3 µM"
- Compound: "CC(=O)OCC1OC(OC2CCCC[Si](c3ccccc3)(c3ccccc3)O2)C(OC(C)=O)C(OC(C)=O)C1OC(C)=O (configuration not stated)"
  Measured On: "HS 578T breast"
  GI50: "> 100 µM"
- Compound: "Nc1nc2cc(-c3ccc4ncc(C(=O)N5CCOCC5)n4c3)ccc2o1"
  Measured On: "HS 578T breast"
  GI50: "3.36 µM"
- Compound: "CCSc1ccc2c(c1)N(CCCN1CCN(C)CC1)c1ccccc1S2"
  Measured On: "HS 578T breast"
  GI50: "2 µM"
- Compound: "COc1ccc(/C=C2\\CS(=O)(=O)C/C(=C\\c3ccc(OC)cc3)C2=O)cc1"
  Measured On: "HS 578T breast"
  GI50: "3.07 µM"
- Compound: "Cc1nn(-c2ccccc2)c(-n2ccnc2)c1/C=N/Nc1nc(-c2ccc(Cl)c(Cl)c2)cs1"
  Measured On: "HS 578T breast"
  GI50: "2.95 µM"
- Compound: "CN1CCN(Cc2ccc(NC(=O)c3cnc(F)c(C#Cc4cnc(N)c5ncccc45)c3)cc2C(F)(F)F)CC1"
  Measured On: "HS 578T breast"
  GI50: "0.183 µM"
- Compound: "CCCCSSC(=S)N(CC)CC"
  Measured On: "HS 578T breast"
  GI50: "38.6 µM"
- Compound: "O=C(Nc1cccc(-n2cc(-c3ccncc3)c(-c3ccc(Cl)c(O)c3)n2)c1)Nc1cccc(C(F)(F)F)c1"
  Measured On: "HS 578T breast"
  GI50: "3.31 µM"
- Compound: "NS(=O)(=O)c1ccc(Nc2ncc(-c3ccccc3)o2)cc1"
  Measured On: "HS 578T breast"
  GI50: "20.5 µM"
- Compound: "CCN(CC)CCn1c(N)c(-c2nc3ccccc3n2C)c2nc(C#N)c(C#N)nc21"
  Measured On: "HS 578T breast"
  GI50: "2.52 µM"
- Compound: "CN(C)c1ccc(O)c2c1CC1CC3C(N(C)C)C(=O)C(C(N)=O)=C(O)C3(O)C(=O)C1=C2O (configuration not stated)"
  Measured On: "HS 578T breast"
  GI50: "14.4 µM"
- Compound: "CCN(CC)CCCN1C(=O)c2c(c(C)c3c(oc4ccc(O)cc43)c2C)C1=O"
  Measured On: "HS 578T breast"
  GI50: "2.15 µM"
- Compound: "COc1cccc(-n2ncc3c(N/N=C/c4ccc(F)cc4)ncnc32)c1"
  Measured On: "HS 578T breast"
  GI50: "7.51 µM"
- Compound: "Nc1[nH]c(=O)nc2c1cnn2Cc1ccccc1"
  Measured On: "HS 578T breast"
  GI50: "> 100 µM"
- Compound: "CSc1nn2c(-c3ccc4ccccc4c3)ccnc2c1C#N"
  Measured On: "HS 578T breast"
  GI50: "1.05 µM"
- Compound: "N#Cc1c(-c2ccccc2)n([O-])c2ccccc2[n+]1=O"
  Measured On: "HS 578T breast"
  GI50: "26.8 µM"
- Compound: "Cc1ccc2c(NCCCN(C)C)c3c(C)nn(C)c3nc2c1"
  Measured On: "HS 578T breast"
  GI50: "4.24 µM"
- Compound: "CC(C)(C)CC(C)(C)c1ccc(OCCSC(=N)N)cc1"
  Measured On: "HS 578T breast"
  GI50: "2.15 µM"
- Compound: "CCOC(=O)c1ccc(NC(=O)Nc2nccs2)cc1"
  Measured On: "HS 578T breast"
  GI50: "0.033 µM"
- Compound: "CCCCCCCCCCCCCCCCNC(=O)OC(C)C"
  Measured On: "HS 578T breast"
  GI50: "2.19 µM"
- Compound: "C=CCOC1=CC(=O)c2ccccc2C1=O"
  Measured On: "HS 578T breast"
  GI50: "4.58 µM"
